- testSystem: T1, KRAS G12D peptide on HLA-A*11:01 (human)
- T1 peptide: VVVGADGVGK
- assayMethodText: CD137 by flow cytometry; transduced primary CD4+ and CD8+ T cells, TRAC/TRBC double knockout; G12D peptide titrated (FIG. 3D); full-length, on cells
So I've got a bunch of binders here, and I need their EC50 of peptide values.
Give just the number in nM; leave the unit off.

Q: Returns the measured EC50 of peptide for the input binder. Input: TCR91 (TCR, V domains shown) Valpha: AQKVTQAQTEISVVEKEDVTLDCVYETRDTTYYLFWYKQPPSGELVFLIRRNSFDEQNEISGRYSWNFQKSTSSFNFTITASQVVDSAVYFCALNEGGGSTLGRLYFGRGTQLTVWP Vbeta: DAMVIQNPRYQVTQFGKPVTLSCSQTLNHNVMYWYQQKSSQAPKLLFHYYDKDFNNEADTPDNFQSRRPNTSFCFLDIRSPGLGDAAMYLCATSTGRVYQPQHFGDGTRLSIL
Result: 14.4

Q: Returns the measured EC50 of peptide for the input binder. Input: TCR4 (TCR, V domains shown) Valpha: QKEVEQDPGPLSVPEGAIVSLNCTYSNSAFQYFMWYRQYSRKGPELLMYTYSSGNKEDGRFTAQVDKSSKYISLFIRDSQPSDSATYLCAMGALNSGAGSYQLTFGKGTKLSVIP Vbeta: KAGVTQTPRYLIKTRGQQVTLSCSPISGHRSVSWYQQTPGQGLQFLFEYFSETQRNKGNFPGRFSGRQFSNSRSEMNVSTLELGDSALYLCASSLSSGTGTEAFFGQGTRLTVE
Result: 4.4
